Reported values of IC50 for individual entries
Target: bovine cardiac myofibrils (Bos taurus)
Construct: full-length cardiac myosin in the context of the native sarcomere, skinned myofibril assays were performed
Sequence (Q9BE39 whole entry): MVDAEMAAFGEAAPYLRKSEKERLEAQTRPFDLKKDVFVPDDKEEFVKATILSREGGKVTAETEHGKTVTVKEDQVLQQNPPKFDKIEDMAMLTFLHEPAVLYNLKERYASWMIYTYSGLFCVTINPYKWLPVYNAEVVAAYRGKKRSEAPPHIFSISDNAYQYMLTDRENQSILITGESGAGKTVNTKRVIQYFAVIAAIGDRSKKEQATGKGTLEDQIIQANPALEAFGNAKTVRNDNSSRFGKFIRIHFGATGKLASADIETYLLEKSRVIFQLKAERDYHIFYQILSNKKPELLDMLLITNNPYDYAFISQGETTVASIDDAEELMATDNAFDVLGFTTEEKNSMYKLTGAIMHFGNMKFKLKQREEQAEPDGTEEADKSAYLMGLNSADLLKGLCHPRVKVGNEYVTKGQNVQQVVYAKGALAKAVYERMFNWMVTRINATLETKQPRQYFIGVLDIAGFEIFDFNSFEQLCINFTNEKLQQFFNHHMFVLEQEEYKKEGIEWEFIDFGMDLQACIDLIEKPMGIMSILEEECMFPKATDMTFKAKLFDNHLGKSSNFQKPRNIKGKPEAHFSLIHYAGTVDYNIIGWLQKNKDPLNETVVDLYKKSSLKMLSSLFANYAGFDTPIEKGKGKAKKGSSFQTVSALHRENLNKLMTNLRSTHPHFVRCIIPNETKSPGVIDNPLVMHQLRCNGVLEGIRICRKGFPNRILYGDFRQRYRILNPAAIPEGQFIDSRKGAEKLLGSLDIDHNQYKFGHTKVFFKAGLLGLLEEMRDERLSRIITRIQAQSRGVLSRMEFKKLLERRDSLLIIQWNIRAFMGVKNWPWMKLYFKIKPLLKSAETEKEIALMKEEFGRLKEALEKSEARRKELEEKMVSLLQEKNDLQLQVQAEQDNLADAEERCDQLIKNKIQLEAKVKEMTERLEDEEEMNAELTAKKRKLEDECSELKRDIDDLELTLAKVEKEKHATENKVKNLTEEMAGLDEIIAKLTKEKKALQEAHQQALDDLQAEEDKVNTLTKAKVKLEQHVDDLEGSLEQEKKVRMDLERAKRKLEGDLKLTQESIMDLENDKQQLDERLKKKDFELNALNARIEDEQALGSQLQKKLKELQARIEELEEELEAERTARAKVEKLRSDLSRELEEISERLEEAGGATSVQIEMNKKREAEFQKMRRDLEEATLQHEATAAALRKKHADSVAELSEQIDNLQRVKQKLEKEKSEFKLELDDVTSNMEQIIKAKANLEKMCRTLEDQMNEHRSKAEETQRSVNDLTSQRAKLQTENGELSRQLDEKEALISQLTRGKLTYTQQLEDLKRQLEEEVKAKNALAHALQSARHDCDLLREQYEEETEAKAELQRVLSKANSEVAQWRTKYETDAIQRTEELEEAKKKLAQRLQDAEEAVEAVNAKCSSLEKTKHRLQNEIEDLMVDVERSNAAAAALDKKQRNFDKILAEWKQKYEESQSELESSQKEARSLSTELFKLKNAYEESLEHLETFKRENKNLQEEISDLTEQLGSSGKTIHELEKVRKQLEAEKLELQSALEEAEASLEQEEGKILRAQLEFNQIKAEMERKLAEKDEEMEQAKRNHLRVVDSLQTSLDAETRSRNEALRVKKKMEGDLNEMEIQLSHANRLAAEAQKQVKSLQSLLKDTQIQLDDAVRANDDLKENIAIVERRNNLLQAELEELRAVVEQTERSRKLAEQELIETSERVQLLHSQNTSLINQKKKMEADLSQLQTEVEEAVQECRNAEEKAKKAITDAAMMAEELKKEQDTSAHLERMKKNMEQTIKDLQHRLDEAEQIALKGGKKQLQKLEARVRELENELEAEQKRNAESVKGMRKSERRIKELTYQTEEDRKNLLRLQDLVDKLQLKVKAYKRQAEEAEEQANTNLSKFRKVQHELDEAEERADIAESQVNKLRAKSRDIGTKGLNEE
Sequence (P85100 whole entry partner): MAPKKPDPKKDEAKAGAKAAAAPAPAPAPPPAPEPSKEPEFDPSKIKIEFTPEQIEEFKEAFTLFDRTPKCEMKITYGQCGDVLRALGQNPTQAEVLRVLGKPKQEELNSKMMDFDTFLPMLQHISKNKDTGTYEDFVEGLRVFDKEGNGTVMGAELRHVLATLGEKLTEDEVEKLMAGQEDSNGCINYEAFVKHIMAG
Sequence (Q3SZE5 whole entry partner): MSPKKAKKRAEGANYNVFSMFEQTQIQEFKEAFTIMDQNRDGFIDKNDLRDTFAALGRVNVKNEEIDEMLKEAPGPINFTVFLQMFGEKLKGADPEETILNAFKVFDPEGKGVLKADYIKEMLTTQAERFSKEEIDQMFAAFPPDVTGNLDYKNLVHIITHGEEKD
Test: Skinned myofibril ATPase assay (PK/LDH-coupled), CDMF75
Conditions: inhibition of steady-state ATPase activity of bovine cardiac myofibrils at 75% Ca2+ activation (pCa75)
Recorded endpoint: IC50

>>> result("COc1cccc(NCc2ccc(-c3cc(C)on3)cc2)n1")
"> 39.2 µM"
>>> result("Cc1cc(-c2ccc(CNc3ccn(C)n3)cc2)no1")
"> 39.2 µM"
>>> result("Cc1nc(-c2ccc(CNc3cc(C#N)ccn3)cc2)no1")
"5.5 µM"
>>> result("Fc1cc(-c2noc(C(F)(F)F)n2)ccc1CNc1cnccn1")
"4 µM"
>>> result("c1cnc(NCc2ccc(-c3noc(C4CCC4)n3)cc2)cn1")
"1.4 µM"
>>> result("COC(=O)NCc1ccc(-c2noc(C)n2)cc1")
"25.8 µM"
>>> result("Cc1nc(-c2ccc(CNc3cc(C(F)(F)F)ncn3)cc2)no1")
"3.7 µM"
>>> result("Cc1onc(-c2ccc(CNc3cnccn3)cc2)c1I")
"0.9 µM"
>>> result("Cc1nc(-c2ccc(CNc3cnccn3)cc2F)no1")
"3.9 µM"
>>> result("CC(C)c1nc(-c2ccc([C@@H](C)Nc3cnccn3)cc2)no1")
"3 µM"
>>> result("Cc1nc(-c2ccc(CNc3cc(C(N)=O)ccn3)cc2)no1")
"4.3 µM"
>>> result("FC(F)(F)c1nc(-c2ccc(CNc3cnccn3)cc2)no1")
"4.1 µM"
>>> result("Cc1nc(-c2ccc(CNC(=O)OCc3ccccc3)cc2)no1")
"19.3 µM"
>>> result("C[C@@H](Nc1cnccn1)c1ccc(-c2noc(-c3ccccc3)n2)cc1")
"5.6 µM"
>>> result("Cc1nc(-c2ccc(CNC(=O)c3ccnc(N)c3)cc2)no1")
"30.8 µM"
>>> result("Cc1cnc(-c2ccc(CNc3cnccn3)cc2)s1")
"19 µM"

meta.source: patent US12187712B2
